Each recorded value in this set is attributed to patent US8193191B2.

tested-target: Human UII receptor, 6D9 human rhabdomyosarcoma cells (Homo sapiens, UniProt Q9UKP6)
Construct: 6D9: isolated by dilution subcloning of RMS13 cells, ATCC® Number: CRL-2061
Sequence (Q9UKP6 whole entry): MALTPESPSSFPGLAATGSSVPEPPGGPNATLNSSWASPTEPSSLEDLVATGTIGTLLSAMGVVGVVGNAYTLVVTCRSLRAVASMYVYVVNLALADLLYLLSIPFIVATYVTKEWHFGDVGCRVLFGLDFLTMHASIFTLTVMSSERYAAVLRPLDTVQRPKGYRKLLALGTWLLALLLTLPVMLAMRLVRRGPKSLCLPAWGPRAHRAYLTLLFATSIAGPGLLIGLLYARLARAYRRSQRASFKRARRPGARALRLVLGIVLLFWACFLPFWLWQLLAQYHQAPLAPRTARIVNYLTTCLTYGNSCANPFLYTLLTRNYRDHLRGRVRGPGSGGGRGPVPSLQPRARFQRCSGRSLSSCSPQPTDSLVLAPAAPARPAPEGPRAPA
assay-info: Human UII Calcium Mobilization Assay
experimental-conditions: average value, FLIPR TETRA, read-out: Human UII Ca^+ Mobilization Average IC50
Below: a set of entries, each annotated with reported IC50.
All answers are understood in nM, so give the number only.

Sample answers from the record:
COc1ccc([C@@H](CCCNC(=O)c2ccc(S(C)(=O)=O)s2)N2C(=O)c3cccc(N4CCN([C@H](C)c5ccccc5)CC4)c3C2=O)cc1OC [Cpd 157] | 680
COc1ccc([C@@H](CCCNS(=O)(=O)c2cnn(C)c2)N2C(=O)c3cccc(N4CCN([C@H](C)c5ccccc5)CC4)c3C2=O)cc1OC [Cpd 136] | 360
COc1ccc([C@@H](CCCNC(=O)c2conc2C)N2C(=O)c3cccc(N4CCN([C@H](C)c5ccccc5)CC4)c3C2=O)cc1OC [Cpd 158] | 330

// query Suppose we examine the compound COc1ccc(C(CCCNS(=O)(=O)c2ccc(-c3ccon3)s2)N2C(=O)c3cccc(N4CCN([C@H](C)c5ccccc5)CC4)c3C2=O)cc1OC (stereo partly drawn) [Cpd 95] ; what IC50 value has been reported?
// result 200

// query Suppose we examine the compound COc1ccc(C(CCCNC(=O)c2cccs2)N2C(=O)c3cccc(N4CCN([C@H](C)c5ccccc5)CC4)c3C2=O)cc1OC (stereo partly drawn) [Cpd 104] ; what IC50 value has been reported?
// result 170

// query Suppose we examine the compound COc1ccc([C@@H](CCNC(=O)c2ccncc2)N2C(=O)c3cccc(N4CCN([C@H](C)c5ccccc5)CC4)c3C2=O)cc1OC [Cpd 221] ; what IC50 value has been reported?
// result 910
